Exercise: state measured reverse-splicing fitness for each of the variants provided.
B1: Azoarcus group I ribozyme (parent)
chain: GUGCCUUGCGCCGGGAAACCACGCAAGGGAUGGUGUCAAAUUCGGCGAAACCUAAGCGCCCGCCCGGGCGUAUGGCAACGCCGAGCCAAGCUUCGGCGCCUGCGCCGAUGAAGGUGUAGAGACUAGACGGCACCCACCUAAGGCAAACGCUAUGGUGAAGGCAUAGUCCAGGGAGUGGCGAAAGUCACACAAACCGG

- Variants of: B1
- measurement_description: reverse-splicing fitness (ratio to wild type); higher = more active; in vitro selection; Mg2+ level not given

Q: What does the data say about its reverse-splicing fitness? Entry: C82G A111G A120C A145U C150G C169U U176A
A: 0.0078

Q: Same question for C82G A111C A120C A145G C150U C169U please.
A: 0.0124

Q: Same question for C82G A111U A120U A145C U176G please.
A: 0.00404

Q: Same question for C82U A111G A120U U176C please.
A: 0.0192

Q: Same question for C82G A111U A120U A145G C150A C169U U176G please.
A: 0.00285

Q: Same question for C82A A111C A145G C150G C169G please.
A: 0.00662

Q: Same question for C82G A120G A145G C150U C169A U176C please.
A: 0.0181

Q: Same question for C82G A111C A120G A145G C169G U176C please.
A: 0.0288

Q: Same question for C82G A111C C150U U176C please.
A: 0.0801

Q: Same question for C82A A111C A120U A145U C150U C169A please.
A: 0.00321

Q: Same question for C82U A111U A120U A145U C150U C169A U176G please.
A: 0.00202

Q: Same question for C82A A111G A145U C150A please.
A: 0.0313

Q: Same question for C82U A111G A120U A145C U176A please.
A: 0.00851

Q: Same question for C82G A120G C150U C169G U176G please.
A: 0.00485

Q: Same question for C82G A111C A120G U176A please.
A: 0.0162

Q: Same question for A111G A145U C150A C169U please.
A: 0.0232

Q: Same question for C82U A111G A120C A145U C150U C169G U176A please.
A: 0.0133

Q: Same question for C82A A111C A120U A145C C150U C169A please.
A: 0.00362

Q: Same question for C82A A111G A120C A145C C169G U176G please.
A: 0.00569

Q: Same question for A111U A120U A145C C169U U176C please.
A: 0.00989

Q: Same question for A111G A120G A145G C150U please.
A: 0.244

Q: Same question for A111C A120U A145C C150G U176A please.
A: 0.0207

Q: Same question for C82U A111U A120G C150U C169A U176G please.
A: 0.005

Q: Same question for A111C A120U C150A please.
A: 0.0711

Q: Same question for A111U A120U A145G U176C please.
A: 0.266

Q: Same question for A111G A120U A145C C150G C169A U176G please.
A: 0.00216

Q: Same question for C82A A120C A145U C150U C169G U176A please.
A: 0.0129

Q: Same question for C82U A111G C150A C169U U176A please.
A: 0.0155

Q: Same question for C82U A111C A145C C169U U176A please.
A: 0.0157

Q: Same question for A111C A120C A145U C150G C169U U176G please.
A: 0.00656

Q: Same question for A111C A120C A145C C150G C169U U176A please.
A: 0.00995

Q: Same question for C82U A111U A120G A145C C150U C169A U176C please.
A: 0.00544

Q: Same question for C82G A120G A145U C150G C169G U176A please.
A: 0.00742

Q: Same question for C82G A111G A120C A145C C150U C169G U176A please.
A: 0.0242

Q: Same question for A111C A120C A145U C150G C169A U176C please.
A: 0.00906

Q: Same question for C82G A111G A120C C169A U176G please.
A: 0.00532

Q: Same question for C82G A111G A120G C169A U176G please.
A: 0.00429

Q: Same question for A111G A120C A145C C169U U176G please.
A: 0.00718

Q: Same question for C82A A111U A120U A145C C169A U176A please.
A: 0.00304

Q: Same question for C82U A111C A120G A145U C150A C169G U176G please.
A: 0.00431

Q: Same question for C82U A111C A120G C150G C169A please.
A: 0.00813

Q: Same question for A120G A145U C150A U176C please.
A: 0.0519

Q: Same question for C82A A120G A145G C150A C169U U176G please.
A: 0.00592

Q: Same question for C82U A111C A120C A145C C150A C169G U176G please.
A: 0.00588

Q: Same question for C82U A111G A120U C150G C169G U176A please.
A: 0.00513

Q: Same question for C82A A111C A120G A145G C169G U176A please.
A: 0.0211

Q: Same question for C82G A111G C150G C169G U176C please.
A: 0.00922

Q: Same question for A111G A120C A145C C150A C169U U176A please.
A: 0.016

Q: Same question for C82G A111G A120U A145U C169U U176C please.
A: 0.0031

Q: Same question for C82A A111C C169U U176G please.
A: 0.00856

Q: Same question for C82G A111C A120U A145U C150G C169U U176G please.
A: 0.00234

Q: Same question for A111G A120C C150A U176A please.
A: 0.0735

Q: Same question for A111C A120C U176C please.
A: 0.204

Q: Same question for C82G A111U A145G C150A C169U please.
A: 0.0113

Q: Same question for A120C C150G C169G U176G please.
A: 0.0036

Q: Same question for A120G A145G C169A please.
A: 0.424

Q: Same question for C82G A111C A120C A145G C150G U176A please.
A: 0.00652

Q: Same question for C82G A145C C150G C169U U176C please.
A: 0.00852

Q: Same question for A111C A120C A145C please.
A: 0.556

Q: Same question for A111C A120U A145G C150A C169A please.
A: 0.0061

Q: Same question for C82G A111C A145U C150G C169G please.
A: 0.0063

Q: Same question for A111C A145C C150G C169G U176C please.
A: 0.00915

Q: Same question for A120C A145U C150G C169U please.
A: 0.107

Q: Same question for C82U A111C A145C C150U C169U U176A please.
A: 0.0154

Q: Same question for A111U A145C C150A C169A please.
A: 0.00817

Q: Same question for C82G A120C A145C U176A please.
A: 0.0678

Q: Same question for C82U A111U A145G C169A U176C please.
A: 0.0257

Q: Same question for C82U A120G A145G please.
A: 0.0245

Q: Same question for C82A A120G A145U U176G please.
A: 0.00426

Q: Same question for C82G A111U A120U A145U C169G U176C please.
A: 0.0026

Q: Same question for C82U A111C A120G C169U U176C please.
A: 0.0142

Q: Same question for C82A A111C C169G U176A please.
A: 0.0177

Q: Same question for C82A C150A C169G please.
A: 0.00927

Q: Same question for A111U C169G U176G please.
A: 0.00596

Q: Same question for C82G A111U A120C A145C C150G C169U U176G please.
A: 0.00524

Q: Same question for A111U A145G C150U U176A please.
A: 0.591

Q: Same question for C82G A111U A145C C169A U176A please.
A: 0.0121

Q: Same question for C82G A120U A145G C150A C169U U176A please.
A: 0.00465

Q: Same question for C82G A111G A120G C150A C169A U176C please.
A: 0.0216

Q: Same question for C82U A111C A120G A145C C169G U176G please.
A: 0.00397
